Assay: Bioavailability trial of nicardipine in rhesus monkeys: nasal composition compared with oral route (gastric tube), plasma levels by gas chromatography
Format: in vivo
Details: rhesus monkey, oral route (gastric tube), 20 mg, read-out: T max (time to obtain C max)
endpoint.label: Tmax

Inquiry: Answer with reported Tmax of COC(=O)C1=C(C)NC(C)=C(C(=O)OCCN(C)Cc2ccccc2)C1c1cccc([N+](=O)[O-])c1 (stereo not shown)
Reply text: 2.1 h

---

Assay: Bioavailability trial of nicardipine in rhesus monkeys: nasal composition compared with oral route (gastric tube), plasma levels by gas chromatography
Type: in vivo
Details: rhesus monkey, oral route (gastric tube), 20 mg, read-out: AUC 0-24 h (area under the curve)
endpoint.label: AUC(0-t) at 24 h (ng·h/mL)
Field: numeric (ng·h/mL). Do not append units.

Inquiry: Annotate the molecule COC(=O)C1=C(C)NC(C)=C(C(=O)OCCN(C)Cc2ccccc2)C1c1cccc([N+](=O)[O-])c1 (stereo not shown) [nicardipine] with its measured AUC(0-t) at 24 h.
Reply text: 457

---

Assay: Bioavailability trial of nicardipine in rhesus monkeys: nasal composition compared with oral route (gastric tube), plasma levels by gas chromatography
Type: in vivo
Settings: rhesus monkey, nasal route, 4 mg, read-out: T max (time to obtain C max)
endpoint.label: Tmax (min)
The reply should contain only the number, in min.

Inquiry: State, in one line, measured Tmax of COC(=O)C1=C(C)NC(C)=C(C(=O)OCCN(C)Cc2ccccc2)C1c1cccc([N+](=O)[O-])c1 (stereo not shown)
Reply text: 24
